tested on: VCR resistant murine leukemia (P388/VCR) cells; test: In vivo effect for overcoming resistance to vincristine in VCR resistant murine leukemia (P388/VCR) bearing mice; set-up: species or system CDF1 male mice; conditions: Test Example 6, Table 6; same procedure as Test Example 5
Catalogue of Life prolonging rate T/C (%) readings, one per entry.
Your answer is read as %, so omit the unit and give the number.

Solved entries:
{"COMPOUND": "CCC(C)C1C(C(=O)OCCCc2cccnc2)=C(C)NC(C)=C1C(=O)OCCCc1cccnc1 (stereo not shown)", "UNIT INFO": "%", "RESULT": 176}
{"COMPOUND": "CCCCCC1C(C(=O)OCCCc2cccnc2)=C(C)NC(C)=C1C(=O)OCCCc1cccnc1", "UNIT INFO": "%", "RESULT": 143}
{"COMPOUND": "CCCCC(CC)C1C(C(=O)OCCCc2cccnc2)=C(C)NC(C)=C1C(=O)OCCCc1cccnc1 (stereo not shown)", "UNIT INFO": "%", "RESULT": 140}

Query compound follows.
Please report the recorded Life prolonging rate T/C (%) for CCC(CC)C1C(C(=O)OCCCc2cccnc2)=C(C)NC(C)=C1C(=O)OCCCc1cccnc1 .
148

---

test system: KCl contraction in rat arteries (thoracic aorta); test: Action easing KCl contraction in rat arteries (thoracic aorta ring); details: read-out: IC50 value (50% inhibitory concentration of hypercalcemic contraction), Test Example 8, Table 8
MEASUREMENT LABEL: IC50
In your response, put the unit directly after the numeric value.

{"COMPOUND": "CCCCC(CC)C1C(C(=O)OCCCc2cccnc2)=C(C)NC(C)=C1C(=O)OCCCc1cccnc1 (stereo not drawn)", "IC50": "7 µM"}
{"COMPOUND": "CCCCCC#CC1C(C(=O)OCCCc2cccnc2)=C(C)NC(C)=C1C(=O)OCCCc1cccnc1", "IC50": "10.5 µM"}
{"COMPOUND": "CCCCCC1C(C(=O)OCCCc2cccnc2)=C(C)NC(C)=C1C(=O)OCCCc1cccnc1", "IC50": "4.6 µM"}

Okay, next one:
I am curious: what IC50 value has been reported for CC1=C(C(=O)OCCCc2cccnc2)C(Cc2ccccc2)C(C(=O)OCCCc2cccnc2)=C(C)N1 ?
42 µM

---

Assay: Acute toxicity test
Conditions: mouse, in vivo, ip; mice, intraperitoneal, 7 days observation
Experimental: Animals used: ICR male mice (Charles River Japan) 7-8 weeks old, three mice per group. Test method: The compound of the present invention was suspended in 0.5% sodium carboxymethylcellulose (CMC-Na) containing 0.1% Tween 80. […] The survival of the animals was observed up until 7 days after administration and the LD50 was calculated by the Van Der Wearder area method.
MEASUREMENT LABEL: LD50 at 168 h (mg/kg)
Express your answer in mg/kg, writing the number without its unit.

Name the recorded LD50 at 168 h for CC1=C(C(=O)OCCCc2cccnc2)C(C(c2ccccc2)c2ccccc2)C(C(=O)OCCCc2cccnc2)=C(C)N1 [Compound 6] .
2000

---

test system: KCl contraction in rat arteries (thoracic aorta); test: Action easing KCl contraction in rat arteries (thoracic aorta ring); settings: read-out: IC50 value (50% inhibitory concentration of hyperpotassium contraction), Test Example 7, Table 7, 37° C.
In this section we review reported IC50 values for a set of compounds.
Write the answer as a number in µM, unit excluded.

{"COMPOUND": "CC1=C(C(=O)OCCCc2cccnc2)C(C(c2ccccc2)c2ccccc2)C(C(=O)OCCCc2cccnc2)=C(C)N1", "ASSAYED TARGET": "KCl contraction in rat arteries (thoracic aorta)", "UNIT INFO": "µM", "IC50": 25.5}

# context switch: different compound, same IC50
Record request: IC50 value, item COC(=O)C1=C(C)NC(C)=C(C(=O)OCCN(C)Cc2ccccc2)C1c1cccc([N+](=O)[O-])c1 (stereo not drawn) [Nicardipine, nicardipine, reference compound]
0.53
